Source listed as ChEMBL document CHEMBL3885861.

# Organism: Rattus norvegicus
# experimental_protocol: Open TG-GATES - Regimen: Daily Repeat
# Type: toxicity, organism-based, Sprague-Dawley
# Design: regimen Daily Repeat, gender Male, age 6 weeks
# experimental_context: in vivo, po, 1000 mg/kg, 72 h, tissue Plasma, route gavage, dose level High, time 3 day
observed_property: BUN (mg/dL)
Give your result in mg/dL as a bare value.

Answered cases to consult:
                                   molecule  observed_property      u  observed_measurement
0  O=C(N[C@H](CO)[C@H](O)c1ccc([N+](=O)[O-])cc1)C(Cl)Cl [CHLORAMPHENICOL]                BUN  mg/dL                  16.6
1   CC(C)(S)[C@@H](N)C(=O)O [PENICILLAMINE]                BUN  mg/dL                  13.2
2  CCN1CCCC1CNC(=O)c1cc(S(N)(=O)=O)ccc1OC (centres undefined) [SULPIRIDE]                BUN  mg/dL                  16.4

Query molecule follows.
Lab note: O=C(O)c1cccnc1 [NIACIN] gave BUN of 17.2
